pKi: −log10 of the molar value. Where a name gives a salt, the structure may show the parent alone.
Reported values: pKi for human 5HT1E receptor (Homo sapiens, UniProt P28566), one per item.
Experimental endpoint: pKi

In [3]: df
Out[3]:
                                   compound  experimental_endpoint  measured_value
0  c1ccc(Nc2nc(Nc3ccc(N4CCCCC4)cc3)nc3ccccc23)cc1 [Compound 6, Dihydrochloride]                    pKi          ≤ 5.30
1  CNS(=O)(=O)Cc1ccc(Nc2nc(Nc3ccccc3)c3ccccc3n2)cc1.Cl [Compound 11, Hydrochloride]                    pKi          ≤ 5.30
2  O=S(=O)(NC[C@H]1CC[C@H](CNC(CO)Cc2ccc(Cl)cc2)CC1)c1cccc2ccccc12 (some centres unmarked)                    pKi          ≤ 5.30
3  Cl.c1ccc(Nc2nc(Nc3ccccc3)c3ccccc3n2)cc1 [Compound 1, Hydrochloride]                    pKi          ≤ 5.30
4  CNS(=O)(=O)Cc1ccc(Nc2nc(Nc3ccccc3)c3cc(OC)ccc3n2)cc1.Cl [Compound 10, Hydrochloride]                    pKi          ≤ 5.30
5  CC(=O)O[C@H]1CC[C@H](Nc2nc(Nc3ccccc3)c3ccccc3n2)CC1 [Compound 7, Hydrochloride]                    pKi          ≤ 5.30
6  COc1ccc(Nc2nc(Nc3ccccc3)c3cccc(OC)c3n2)cc1.Cl [Compound 9, Hydrochloride]                    pKi          ≤ 5.30
7  Cl.Nc1nc(NC[C@H]2CC[C@H](CNS(=O)(=O)c3cccc4ccccc34)CC2)nc2ccccc12 [Compound 5, Hydrochloride]                    pKi          ≤ 5.30
